Target: T1, A138 iCAPS (CB1 with ICL3 native sequence replaced with protein 1 sequence) (human, UniProt P21554 99-414)
T1 construct: The insert stands inside the chain in place of ICL3
T1 sequence (P21554 whole entry): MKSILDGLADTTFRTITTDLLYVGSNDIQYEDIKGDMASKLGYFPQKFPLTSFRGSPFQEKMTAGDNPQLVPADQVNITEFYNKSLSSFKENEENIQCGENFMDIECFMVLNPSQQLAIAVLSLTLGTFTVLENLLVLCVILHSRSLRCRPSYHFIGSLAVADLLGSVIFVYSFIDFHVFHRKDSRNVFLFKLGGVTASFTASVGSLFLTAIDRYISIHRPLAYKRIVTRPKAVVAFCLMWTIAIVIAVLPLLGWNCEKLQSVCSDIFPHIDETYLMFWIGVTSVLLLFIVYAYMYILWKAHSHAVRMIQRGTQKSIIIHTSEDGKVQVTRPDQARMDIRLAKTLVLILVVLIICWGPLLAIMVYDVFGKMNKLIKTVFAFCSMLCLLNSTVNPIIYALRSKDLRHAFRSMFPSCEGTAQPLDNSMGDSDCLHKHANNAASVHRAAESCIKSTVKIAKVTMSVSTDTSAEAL
Assay: ELISA, purified IgG on A138 CB1 iCAPS
measured property: pEC50
pEC50 field: float, defined as -log10 of concentration (mol/L).

Examples with answers:
binder: PA2LR3-P4G10 (chimeric) (antibody, V domains shown) VH: EVQLQQFGAELVRPGSSVKISCKASGYAFSYYWMNWVKQRPGQGLEWIGQIYPGDGDTNYNGKFKGKATLTADKSSSTAYMQLSSLTSEDSAVYFCARSHGNYFAYWGQGTLVTVSA VL: DIVLTQSPAIMSASLGERVTMTCTASSSVSSSYLHWYQQKPGSSPKLWIYSTSNLASGVPARFSGSGSGTSYSLTISSMEAEDAATYYCQQWSSNPLTFGAGTKLELKR
measured property: pEC50
observed measurement: 8.92
//
binder: PA2LR3-P1G6 (chimeric) (antibody, V domains shown) VH: EVQLQQSGAELVRPGSSVKISCKASGYAFSYYWMNWVKQRPGQGLEWIGQIYPGDGDTNYNGKFKGKATLTVDKSSSTAYMQLSSLTSEDSAVYFCARSHGNYFAYWGQGTLVTVSA VL: DIVLSQSPAIMSASLGERVTMTCTASSSVSSSYLHWYQQKPGSSPKLWIYSTSNLASGVPARFSGSGSGTSYSLTISRMEAEDAATYYCQQWSSYPLTFGAGTKLELKR
measured property: pEC50
observed measurement: 7.09

Alright, here's another binder for you.
Fill blank: measured pEC50 of the binder PA2R3-P1F1 (chimeric) (antibody, V domains shown) VH: EVQLQQSGAELMKPGASVKISCKATGYTFSSYWIEWVKQRPGHGLEWIGEILPGSGSTNYNEKFKGKATFTADTSSNTAYMQLSSLTSEDSAVYYCARGAWLLSYWYFDVWGAGTSVTVSS VL: DIQMMQSTSSLSASLGDRVTISCSASQGISNYLNWYQQKPDGTVKLLIYYTSSLHSGVPSRFSGSGSGTQFSLKINSLQPEDFGSYYCQHHYGTPYTFGGGTKLELKR is ____.
8.89
